test: Photostability, percentage remaining undegraded under illumination or in the dark; settings: percentage remaining undegraded after 24 hours illumination
Consider the cut-off 8%. If the recorded Photostability 24 hours is strictly smaller, the label is satisfied; if not, the label is not satisfied.

Cc1cc2c(cc1C)C(=O)[C@]1(O)CCN(c3ccc(Cl)cc3)C1=N2    satisfied
Cc1cc2c(cc1F)C(=O)[C@]1(O)CCN(c3ccc4ncsc4c3)C1=N2    satisfied
Cc1sc2c(c1C)C(=O)[C@]1(O)CCN(c3ccc(C#N)c(Cl)c3)C1=N2    not satisfied

Find out if reported Photostability 24 hours for Cc1ccc2cc(N3CC[C@@]4(O)C(=O)c5sc(C)cc5N=C34)ccc2n1 is less than 8%
not satisfied

Can you handle COc1cc(N2CC[C@@]3(O)C(=O)c4cc(C)c(C(F)(F)F)cc4N=C23)ccn1 next?
not satisfied

Can you handle Cc1cc2c(cc1C)C(=O)[C@]1(O)CCN(c3cnc(CO)c(C)c3)C1=N2 next?
not satisfied

Can you handle Cc1cc2c(cc1C)C(=O)[C@]1(O)CCN(c3ccc4c(c3)OCCO4)C1=N2 next?
satisfied
